Data credit: patent EP2380575B1

# Assay Procedure: Trial B: pharmacokinetics following single and repeated doses in healthy young male subjects
# Type: in vivo, humans
# Particulars: male, human, in vivo, oral, 1200 mg, last dose of 8-day repeated 1200 mg o.d. eslicarbazepine acetate, n=6; read-out: Mean Cmax (%CV)
# Procedure: The study integrated the results of three double-blind, randomized, placebo-controlled trials. […] The pharmacokinetics of eslicarbazepine acetate following repeated doses were measured by administering repeated oral doses ranging from 400 mg to 2400 mg of eslicarbazepine acetate to healthy young male subjects (6 subjects per dose) over a period of 8 days. […]
Assay Endpoint: Cmax (ng/mL)

> print(dat)
                                   molecule  unit.spec  readout.value
1  NC(=O)N1c2ccccc2C[C@H](O)c2ccccc21 [eslicarbazepine]      ng/mL          25500

====

# Assay Procedure: Trial B: pharmacokinetics following single and repeated doses in healthy young male subjects
# Type: in vivo, humans
# Particulars: male, human, in vivo, oral, 900 mg, single dose 900 mg eslicarbazepine acetate, n=6; read-out: Mean apparent t½ (%CV) (converted)
# Description: The study integrated the results of three double-blind, randomized, placebo-controlled trials. […] The pharmacokinetics of eslicarbazepine acetate following repeated doses were measured by administering repeated oral doses ranging from 400 mg to 2400 mg of eslicarbazepine acetate to healthy young male subjects (6 subjects per dose) over a period of 8 days. […]
Assay Endpoint: half-life (h)

> print(dat)
                                   compound  assay.endpoint  readout.value
1  NC(=O)N1c2ccccc2C[C@H](O)c2ccccc21 [eslicarbazepine]       half-life           16.3

====

# Assay Procedure: Trial B: pharmacokinetics following single and repeated doses in healthy young male subjects
# Assay type: in vivo, humans
# Particulars: male, human, in vivo, oral, 900 mg, single dose 900 mg eslicarbazepine acetate, n=6; read-out: Mean Cmax (%CV)
Assay Endpoint: Cmax

> print(dat)
                                   compound  assay.endpoint  readout.value
1  NC(=O)N1c2ccccc2C[C@H](O)c2ccccc21 [eslicarbazepine]            Cmax       15 µg/mL

====

# Assay Procedure: Trial B: pharmacokinetics following single and repeated doses in healthy young male subjects
# Type: in vivo, humans
# Particulars: male, human, plasma, oral, 1800 mg, single dose 1800 mg eslicarbazepine acetate, n=6; read-out: Mean apparent t½ (%CV) (converted)
Assay Endpoint: half-life (h)

> print(dat)
                                   compound  assay.endpoint  readout.value
1  NC(=O)N1c2ccccc2C[C@H](O)c2ccccc21 [eslicarbazepine]       half-life           11.8

====

# Assay Procedure: Trial B: pharmacokinetics following single and repeated doses in healthy young male subjects
# Type: in vivo, humans
# Particulars: male, human, in vivo, oral, 200 mg, single dose 200 mg eslicarbazepine acetate, n=6; read-out: Mean Cmax (%CV)
Assay Endpoint: Cmax (ng/mL)

> print(dat)
                                   compound  assay.endpoint  unit.spec  readout.value
1  NC(=O)N1c2ccccc2C[C@H](O)c2ccccc21 [eslicarbazepine]            Cmax      ng/mL           2900

====

# Assay Procedure: Trial B: pharmacokinetics following single and repeated doses in healthy young male subjects
# Assay type: in vivo, humans
# Particulars: male, human, in vivo, oral, 1800 mg, last dose of 8-day repeated 1800 mg o.d. eslicarbazepine acetate, n=6; read-out: Mean AUC0-24h (%CV)
Assay Endpoint: AUC(0-t)

> print(dat)
                                   compound  assay.endpoint  readout.value
1  NC(=O)N1c2ccccc2C[C@H](O)c2ccccc21 [eslicarbazepine]        AUC(0-t)    740 µg·h/mL
